test: inhibitors of Chlamydomonas gravitaxis, primary screen, whole organism, Chlamydomonas reinhardtii, WT vs cilia-less mutant, absorbance, 96-well (AID 463189); settings: OD600 absorbance, 2 days, at 10 µM, hits give high values;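 note: 0% = wild type cc124 cells in DMSO and 100% = ciliumless bld1 mutant cells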
Where inhibition equals or exceeds 20%, the correct label is 1; where it does not, the label is -1.

Input: Is inhibition for Cc1cc(=O)oc(C)c1C(=O)N[C@@H]1CCCCNC1=O at or above 20%?
Output: -1

Input: Is inhibition for CCOc1nc(SCCOc2ccccc2)nc(N(C)C)n1 at or above 20%?
Output: 1

Input: Is inhibition for Cc1ccc(N2C(=O)C3ON(c4ccccc4)C(c4ccncc4)C3C2=O)cc1 (stereo unspecified) at or above 20%?
Output: -1

Input: Is inhibition for CCN(CC)CCCN1C(=O)C(=O)/C(=C(/O)c2ccc(Cl)cc2)C1c1ccccn1 (stereo unspecified) at or above 20%?
Output: 1

Input: Is inhibition for COc1ccc(-c2nc3n(c2Br)CCC3)cc1 at or above 20%?
Output: 1

Input: Is inhibition for CCN(CC)CCOC(=O)C1(c2ccc(OC)c(OC)c2)CCCC1 at or above 20%?
Output: -1

meta.source: PubChem BioAssay
